tested on: NCI-H460 lung; assay: NCI tumour cell line growth inhibition, 48 h
METRIC NAME: TGI

Example entries and their recorded answers appear below.
                                  molecule  obs_value
0                N#CN/C(N)=N/C/N=C(\N)NC#N   > 100 µM
1  Cc1nc(-c2ccccc2)n2nc(NCCCN3CCOCC3)ncc12    > 25 µM
2            COc1ccccc1C#Cc1ccccc1C#CCCCCO    34.2 µM

# input for lookup
I would be grateful if you could share the reported TGI for [N-]=[N+]=NC1OC(=O)C(Cl)=C1N=P(c1ccccc1)(c1ccccc1)c1ccccc1 (centres undefined) . > 10 µM
